Hi there, I'd appreciate the recorded inhibition for every entry that follows.
biological target: Pantothenate synthetase (Mycobacterium tuberculosis (strain ATCC 25618 / H37Rv)); test: Coupled enzyme confirmation of inhibitors against recombinant Mtb PanC (AID 375); conditions: coupled enzyme assay; at 10 µM, hits give high values;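 further: 0% = full reaction with vehicle and 100% = no enzyme background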
Answers are plain numbers, in %.

Consider the worked cases shown below.
| compound | units.label | observed.result |
| --- | --- | --- |
| Cc1cc(C)c2cc3c(ccn3C3OC[C@H](O)[C@H](O)[C@H]3O)cc2n1 (stereo partly drawn) | % | 4 |
| COc1ccc(N2CCN(c3ccc(N)cc3C#N)CC2)cc1 | % | 7 |

Hi team, please reply with inhibition for each item in this list.
1. CC1CCN(C(=O)CN2C(=O)C(C)(C)Oc3ccc(C(=O)NC4CCCC4)cc32)CC1
2. COCCCN(C(C)=O)c1nc(-c2ccccc2)cs1
3. CC1CCCCC1NC(=O)CN1CCN(Cc2ccccc2Cl)C1=O (stereo not drawn)

0
0
0

Hi team, please reply with inhibition for each item in this list.
1. COC(=O)c1ccc(NC(=O)Cn2nnc3ccccc32)cc1
2. CN1CCN(CCCN2c3ccccc3Sc3ccc(C(F)(F)F)cc32)CC1
3. CC(C)(C)c1ccc2c(c1)OCC(C(=O)O)O2 (stereo not drawn)

0
1
4

Hi team, please reply with inhibition for each item in this list.
1. CC1Cc2nc(SCC(=O)Nc3ccc4c(c3)OCO4)n(-c3ccc(F)cc3)c(=O)c2S1 (stereo not drawn)
2. Cn1cc(C(=O)NC2CCCCCCC2)c(=O)c2cc(S(=O)(=O)N3CCCC3)ccc21
3. O=c1cc(-c2ccccc2)[nH]c2nc3ccccc3n12
4. O=C(NCCN1CCOCC1)NC1(C(F)(F)F)Oc2ccc(Cl)cc2O1 (stereo not drawn)
5. CCn1c(=S)sc2nc(C)sc21
6. CC1CCc2nn(CC(=O)NCc3ccc4c(c3)OCO4)cc2C1 (stereo not drawn)
7. O=C(c1ccco1)N1CCN(c2ccc(Cl)cc2)CC1
8. CCCNC(=O)C1CN(S(=O)(=O)c2ccccc2)CCN1S(=O)(=O)c1ccccc1 (stereo not drawn)

0
0
0
0
1
1
5
0

Hi team, please reply with inhibition for each item in this list.
1. COc1cc2[nH]c(=O)n(CCC(=O)N3CCc4ccccc4C3)c(=O)c2cc1OC
2. Fc1cccc(Nc2cc(-n3cccn3)ncn2)c1
3. CCCc1cc(=O)n2[nH]cnc2n1
4. O=C(NCCc1c[nH]c2ccccc12)c1ccc(S(=O)(=O)NCc2ccco2)cc1
5. O=C(NCCCN1CCOCC1)c1cc(-c2ccc(Cl)cc2)on1
6. O=C(NCC1COc2ccccc2O1)c1ccccc1 (stereo not drawn)
7. CCOC(=O)C1CCN(c2c(NC3CCCCCCC3)c(=O)c2=O)CC1

1. 0
2. 3
3. 0
4. 0
5. 4
6. 2
7. 3
